molecular target: CFTR G551D mutant (Homo sapiens, UniProt P13569, G551D); construct: expressed in transfected cells; host or cells: HEK293 (reverse transfection with plasmid); test: YFP-halide influx assay for the CFTR-G551D mutation; type: cell-based; details: HEK293 cells, forskolin 10.67 μM
Sequence (P13569 whole entry G551D): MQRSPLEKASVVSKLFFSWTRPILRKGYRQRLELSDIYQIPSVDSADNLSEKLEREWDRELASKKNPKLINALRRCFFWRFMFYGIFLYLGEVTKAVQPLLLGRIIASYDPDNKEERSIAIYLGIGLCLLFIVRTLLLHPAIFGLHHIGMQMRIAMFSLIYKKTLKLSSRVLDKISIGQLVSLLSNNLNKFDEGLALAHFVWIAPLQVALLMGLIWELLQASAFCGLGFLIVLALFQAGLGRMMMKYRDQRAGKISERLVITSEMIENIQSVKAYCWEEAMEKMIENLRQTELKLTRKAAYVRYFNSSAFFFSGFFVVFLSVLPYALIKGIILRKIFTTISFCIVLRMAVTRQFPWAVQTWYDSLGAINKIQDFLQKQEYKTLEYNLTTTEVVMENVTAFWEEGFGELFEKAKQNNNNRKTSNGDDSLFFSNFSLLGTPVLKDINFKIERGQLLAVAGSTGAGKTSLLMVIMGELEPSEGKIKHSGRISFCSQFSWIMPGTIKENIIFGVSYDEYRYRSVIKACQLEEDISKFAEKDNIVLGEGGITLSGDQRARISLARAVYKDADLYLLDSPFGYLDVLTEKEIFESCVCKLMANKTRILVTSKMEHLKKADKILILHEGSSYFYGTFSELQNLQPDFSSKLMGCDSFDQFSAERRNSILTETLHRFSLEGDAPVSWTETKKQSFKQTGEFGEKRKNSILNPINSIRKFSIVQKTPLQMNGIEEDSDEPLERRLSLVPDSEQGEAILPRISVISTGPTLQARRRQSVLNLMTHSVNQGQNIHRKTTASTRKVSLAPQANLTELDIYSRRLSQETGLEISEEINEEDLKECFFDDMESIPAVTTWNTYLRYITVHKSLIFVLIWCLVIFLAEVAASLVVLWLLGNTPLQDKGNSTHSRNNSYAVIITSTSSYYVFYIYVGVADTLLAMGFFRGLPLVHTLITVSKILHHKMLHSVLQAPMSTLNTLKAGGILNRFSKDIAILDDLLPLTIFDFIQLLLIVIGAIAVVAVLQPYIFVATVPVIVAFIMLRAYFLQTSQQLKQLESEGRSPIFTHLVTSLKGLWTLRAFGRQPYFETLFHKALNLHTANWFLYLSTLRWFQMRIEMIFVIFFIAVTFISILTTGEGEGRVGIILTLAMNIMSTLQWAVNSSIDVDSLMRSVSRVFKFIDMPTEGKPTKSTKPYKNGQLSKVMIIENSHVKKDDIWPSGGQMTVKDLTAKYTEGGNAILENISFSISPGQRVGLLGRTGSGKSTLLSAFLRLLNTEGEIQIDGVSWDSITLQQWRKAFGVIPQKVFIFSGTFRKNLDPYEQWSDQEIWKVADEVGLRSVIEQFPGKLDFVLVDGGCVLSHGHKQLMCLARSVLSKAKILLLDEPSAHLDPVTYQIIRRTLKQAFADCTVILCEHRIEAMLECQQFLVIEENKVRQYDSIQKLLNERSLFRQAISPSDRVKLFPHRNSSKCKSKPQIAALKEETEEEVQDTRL
pEC50: −log10 of the molar value.
MEASURED PARAMETER: pEC50

Before answering, review these 5 worked examples.
| MOLECULE | pEC50 |
| --- | --- |
| NC(=O)c1cc(S(=O)(=O)c2ccc(F)cc2)sc1NC(=O)C1CCCC1O (stereo not drawn) [Compound 272] | 6.11 |
| CCc1cc(C(=O)Nc2sc(S(=O)(=O)N3CCC(F)(F)CC3)cc2C(N)=O)n[nH]1 [Compound 141] | 6.59 |
| NC(=O)c1cc(S(=O)(=O)c2ccccc2OC(F)(F)F)sc1NC(=O)C1(CO)CC1 [Compound 320] | 7.01 |
| CC(C)(O)C(=O)Nc1sc(S(=O)(=O)N2CCOc3ccccc32)cc1C(N)=O [Compound 307] | 6.10 |
| CC(O)C(=O)Nc1sc(S(=O)(=O)c2ccc(F)cc2C(F)(F)F)cc1C(N)=O (stereo not drawn) [Compound 325] | 5.55 |

(I) CC(O)C(=O)Nc1sc(S(=O)(=O)c2c(Cl)cc(F)cc2Cl)cc1C(N)=O (single isomer, unassigned; enantiomer 1) [Compound 354]
(II) CC(C)CC(O)C(=O)Nc1sc(S(=O)(=O)c2ccc(OC(F)(F)F)cc2)cc1C(N)=O (stereo not drawn) [Compound 346]
*Q* Form field 'greater pEC50' accepts I or II ; which applies? Bench note: the answer is the label of the chosen record.
*A* II

(a) Cc1cc(C#N)cc(S(=O)(=O)c2cc(C(N)=O)c(NC(=O)C(C)(C)O)s2)c1 [Compound 399]
(b) CC(C)(O)C(=O)Nc1sc(S(=O)(=O)c2ccc(F)cc2Cl)cc1C(N)=O [Compound 286]
(c) NC(=O)c1cc(S(=O)(=O)c2cc(F)ccc2CC(F)(F)F)sc1NC(=O)CO [Compound 340]
(d) CN(Cc1ccc(F)cc1F)S(=O)(=O)c1cc(C(N)=O)c(NC(=O)c2cc[nH]n2)s1 [Compound 172]
*Q* Task for the reader: rank each entry by its pEC50, from the minimum upward. Hello, could you send the labels back in the order asked? Thank you.
*A* a, b, c, d
(a: 5.72, b: 6.07, c: 6.32, d: 6.86)

(I) COc1ccc(S(=O)(=O)c2cc(C(N)=O)c(NC(=O)C3(O)CC3)s2)cc1 [Compound 245]
(II) CC(CO)C(=O)Nc1sc(S(=O)(=O)c2cc(F)ccc2OC(F)(F)F)cc1C(N)=O (stereo not drawn) [Compound 351]
(III) NC(=O)c1cc(S(=O)(=O)c2ccc(Cl)cc2)sc1NC(=O)C1(O)CC1 [Compound 225]
*Q* Task for the reader: rank each entry by its pEC50, from the minimum upward. Hello, could you send the labels back in the order asked? Thank you.
*A* I, III, II
(I: 6.21, III: 6.53, II: 7.43)

Reference source for all entries: patent US9382254B2
